Data credit: patent US6716858B1

# Method Description: Drug and metabolite levels in plasma and urine, STZ diabetic rat study
# Type: in vivo
# Particulars: rat, plasma, oral, 2 g/L in drinking water; Control + PM (2 g/L), week 21, 4 animals; read-out: Pyridoxamine in plasma
Test Readout: concentration at 21 week (µM)

1) Cc1ncc(CO)c(CN)c1O | 6.3

----------
# System: AGE formation in bovine serum albumin (BSA)
# Method Description: Uninterrupted glycation of BSA with glucose, anti-AGE ELISA
# Format: biochemical
# Particulars: BSA 10 mg/ml, 1.0 M glucose, pH 7.5, 37° C., 6 weeks; inhibitors 3, 15 and 50 mM
# Method: Uninterrupted Glycation with Glucose Bovine serum albumin, ribonuclease A, and human hemoglobin were incubated with glucose at 37° C. in 0.4 M sodium phosphate buffer of pH 7.5 containing 0.02% sodium azide. The protein, glucose (at 1.0 M), and prospective inhibitors (at 0.5, 3, 15 and 50 mM) were introduced into the incubation mixture simultaneously. […] Aliquots were taken and immediately frozen until analyzed by ELISA at the conclusion of the reaction. […]
Test Readout: inhibition of antigenic AGE formation (ELISA)

1) Cc1ncc(C[n+]2csc(CCOP(=O)(O)O)c2C)c(N)n1 [thiamine monophosphate] | not inhibitory
2) Cc1ncc(C[n+]2csc(CCO)c2C)c(N)n1 [thiamine] | not inhibitory

----------
# Method Description: Drug and metabolite levels in plasma and urine, STZ diabetic rat study
# Type: in vivo
# Particulars: rat, plasma, oral, 1 g/L in drinking water; Diabetic + PM (1 g/L), week 21, 4 animals; read-out: Pyridoxamine in plasma
Test Readout: concentration at 21 week (µM)

1) Cc1ncc(CO)c(CN)c1O | 76
